Data provenance: patent US20220411799

measured_on: DNMT1 (Homo sapiens, UniProt P26358 P26358:1-1616)
Sequence (P26358 whole entry, one chain of several): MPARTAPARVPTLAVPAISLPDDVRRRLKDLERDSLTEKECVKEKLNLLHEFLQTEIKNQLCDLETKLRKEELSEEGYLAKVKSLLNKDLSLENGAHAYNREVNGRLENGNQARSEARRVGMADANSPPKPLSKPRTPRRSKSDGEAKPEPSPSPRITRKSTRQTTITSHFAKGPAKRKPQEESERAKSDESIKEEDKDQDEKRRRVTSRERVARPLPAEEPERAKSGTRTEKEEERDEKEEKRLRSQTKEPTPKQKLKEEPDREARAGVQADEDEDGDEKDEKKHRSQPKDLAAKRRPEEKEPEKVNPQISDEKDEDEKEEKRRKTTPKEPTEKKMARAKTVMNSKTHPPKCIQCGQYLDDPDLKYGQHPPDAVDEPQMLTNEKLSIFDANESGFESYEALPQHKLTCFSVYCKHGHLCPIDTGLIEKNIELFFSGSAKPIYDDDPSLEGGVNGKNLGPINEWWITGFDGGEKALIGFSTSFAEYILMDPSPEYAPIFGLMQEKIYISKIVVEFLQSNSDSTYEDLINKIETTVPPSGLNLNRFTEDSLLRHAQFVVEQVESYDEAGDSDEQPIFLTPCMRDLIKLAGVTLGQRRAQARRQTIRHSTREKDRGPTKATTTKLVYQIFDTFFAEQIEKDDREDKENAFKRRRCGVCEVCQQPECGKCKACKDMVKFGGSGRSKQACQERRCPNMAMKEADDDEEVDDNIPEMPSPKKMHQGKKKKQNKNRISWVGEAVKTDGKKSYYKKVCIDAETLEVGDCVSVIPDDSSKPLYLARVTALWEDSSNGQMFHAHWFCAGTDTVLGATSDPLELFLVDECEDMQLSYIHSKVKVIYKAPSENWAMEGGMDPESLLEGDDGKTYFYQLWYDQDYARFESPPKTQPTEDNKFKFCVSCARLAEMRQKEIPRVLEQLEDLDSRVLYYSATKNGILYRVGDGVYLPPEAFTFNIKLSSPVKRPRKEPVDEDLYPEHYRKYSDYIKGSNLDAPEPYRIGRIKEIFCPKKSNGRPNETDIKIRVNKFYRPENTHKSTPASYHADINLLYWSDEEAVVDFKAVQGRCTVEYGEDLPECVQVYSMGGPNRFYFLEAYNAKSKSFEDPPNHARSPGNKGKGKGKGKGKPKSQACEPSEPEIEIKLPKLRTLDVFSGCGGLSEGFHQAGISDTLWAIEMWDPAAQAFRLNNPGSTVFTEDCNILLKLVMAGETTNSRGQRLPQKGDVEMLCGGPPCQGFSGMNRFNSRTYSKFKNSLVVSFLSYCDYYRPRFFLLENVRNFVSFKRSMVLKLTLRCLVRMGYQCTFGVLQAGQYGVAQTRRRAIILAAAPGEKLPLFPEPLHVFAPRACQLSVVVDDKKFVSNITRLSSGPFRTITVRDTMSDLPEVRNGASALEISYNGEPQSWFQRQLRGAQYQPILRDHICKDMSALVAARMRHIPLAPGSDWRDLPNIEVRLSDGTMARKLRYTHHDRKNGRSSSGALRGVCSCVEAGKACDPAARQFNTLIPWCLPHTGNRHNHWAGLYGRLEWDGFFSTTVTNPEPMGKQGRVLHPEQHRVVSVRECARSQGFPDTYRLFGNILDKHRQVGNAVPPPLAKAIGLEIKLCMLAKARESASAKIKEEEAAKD
assay: BLI; BLItz, mutR5 background subtracted
protocol_conditions: tags: His-tagged (Active Motif), full-length; GST-tagged version (Active Motif) used for SELEX; label: 3'-biotin (ELONA, pulldown); hairpin

>  <binder>
UUACUGGGCUGAGGUAAUGGCGAGG (ssRNA, 2'-F pyrimidines) [Ce-10-2 sh]

>  <Kd>
~66 nM

$$$$
>  <binder>
CUGAGGCCUAACGAAGGCUUCU (ssRNA, 2'-F pyrimidines) [Ce-49 sh]

>  <Kd>
~79 nM

$$$$
